# measured target: SARS-CoV-2-RBD (S-RBD) (Severe acute respiratory syndrome coronavirus 2, UniProt P0DTC2)
# Construct: purchased Sino Biological
# test protocol: Surface plasmon resonance (SPR) binding to immobilized S-RBD
# conditions used: SPR, 25 °C, 1:1 binding model; read-out: S-RBD K D
endpoint name: Kd
Give the figure together with its unit, number first.

[in] What does the record list as Kd for Cc1ccc([C@@H]2O[C@H](CO)[C@@H](O)[C@H](O)[C@H]2O)cc1Cc1ccc(-c2ccc(F)cc2)s1 ?
[out] 23.1 µM

[in] Name the reported Kd value associated with the compound C[C@@H]1[C@H](O)[C@@H](C)/C=C/C=C/CC/C=C/C=C/C=C/C=C/C(O[C@H]2O[C@H](C)[C@@H](O)[C@H](N)[C@@H]2O)CC2O[C@](O)(CC(O)C(O)CCC(O)CC(O)CC(O)CC(=O)O[C@H]1C)CC(O)C2C(=O)O (some centres unmarked)
[out] 215 µM

Recorded values, source paper PMC9393390.
